- Run conditions: in isobutanol, 318.15 K

- Query smiles: "O=c1[nH]c2ccccc2n1CCCN1CCC(n2c(=O)[nH]c3cc(Cl)ccc32)CC1"
  solubility (mole fraction): "7.17e-05"

====

- Run conditions: in isopropanol, 318.15 K
Parameter: solubility (mole fraction)

- Query smiles: "O=c1[nH]c2ccccc2n1CCCN1CCC(n2c(=O)[nH]c3cc(Cl)ccc32)CC1"
  Parameter: "solubility (mole fraction)"
  Observed measurement: "5.42e-05"

====

- Run conditions: in n-propanol, 318.15 K

- Query smiles: "O=c1[nH]c2ccccc2n1CCCN1CCC(n2c(=O)[nH]c3cc(Cl)ccc32)CC1"
  solubility (mole fraction): "7.85e-05"

====

- Run conditions: in n-butanol, 308.15 K

- Query smiles: "O=c1[nH]c2ccccc2n1CCCN1CCC(n2c(=O)[nH]c3cc(Cl)ccc32)CC1"
  solubility (mole fraction): "5.47e-05"

====

- Run conditions: in n-butanol, 293.15 K
Parameter: solubility (mole fraction)

- Query smiles: "O=c1[nH]c2ccccc2n1CCCN1CCC(n2c(=O)[nH]c3cc(Cl)ccc32)CC1"
  Parameter: "solubility (mole fraction)"
  Observed measurement: "2.85e-05"

====

- Run conditions: in n-propanol, 293.15 K

- Query smiles: "O=c1[nH]c2ccccc2n1CCCN1CCC(n2c(=O)[nH]c3cc(Cl)ccc32)CC1"
  solubility (mole fraction): "2.55e-05"

====

- Run conditions: in isobutanol, 278.15 K

- Query smiles: "O=c1[nH]c2ccccc2n1CCCN1CCC(n2c(=O)[nH]c3cc(Cl)ccc32)CC1"
  solubility (mole fraction): "1.05e-05"

====

- Run conditions: in methanol, 278.15 K

- Query smiles: "O=c1[nH]c2ccccc2n1CCCN1CCC(n2c(=O)[nH]c3cc(Cl)ccc32)CC1"
  solubility (mole fraction): "8.19e-06"

====

- Run conditions: in n-propanol, 308.15 K
Parameter: solubility (mole fraction)

- Query smiles: "O=c1[nH]c2ccccc2n1CCCN1CCC(n2c(=O)[nH]c3cc(Cl)ccc32)CC1"
  Observed measurement: "5.05e-05"

====

- Run conditions: in methanol, 318.15 K
Parameter: solubility (mole fraction)

- Query smiles: "O=c1[nH]c2ccccc2n1CCCN1CCC(n2c(=O)[nH]c3cc(Cl)ccc32)CC1"
  Observed measurement: "4.9e-05"

====

- Run conditions: in DMSO, 283.15 K
Parameter: solubility (mole fraction)

- Query smiles: "O=c1[nH]c2ccccc2n1CCCN1CCC(n2c(=O)[nH]c3cc(Cl)ccc32)CC1"
  Parameter: "solubility (mole fraction)"
  Observed measurement: 0.00034

====

- Run conditions: in n-butanol, 303.15 K

- Query smiles: "O=c1[nH]c2ccccc2n1CCCN1CCC(n2c(=O)[nH]c3cc(Cl)ccc32)CC1"
  solubility (mole fraction): "4.45e-05"

====

- Run conditions: in DMF, 303.15 K

- Query smiles: "O=c1[nH]c2ccccc2n1CCCN1CCC(n2c(=O)[nH]c3cc(Cl)ccc32)CC1"
  solubility (mole fraction): 0.000282

====

- Run conditions: in DMAc, 293.15 K

- Query smiles: "O=c1[nH]c2ccccc2n1CCCN1CCC(n2c(=O)[nH]c3cc(Cl)ccc32)CC1"
  solubility (mole fraction): 0.00136
